assayedSystem: recombinant eIF4E (Homo sapiens (Human))
Sequence (P06730 whole entry): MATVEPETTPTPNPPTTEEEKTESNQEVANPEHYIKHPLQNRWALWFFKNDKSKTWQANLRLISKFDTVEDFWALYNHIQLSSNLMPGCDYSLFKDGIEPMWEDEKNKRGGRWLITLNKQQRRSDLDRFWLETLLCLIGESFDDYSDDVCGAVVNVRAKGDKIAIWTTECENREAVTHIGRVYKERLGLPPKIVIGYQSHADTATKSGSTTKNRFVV
measurementProtocol: Fluorescence polarization competition assay for eIF4E binding potency
settings: fluorescence polarization competition, 75 nM recombinant eIF4E, 20 nM EDA-m7GDP-ATTO-550; IC50 class; read-out: elF4E FP
assayReadout: IC50

Solved entries (count: 6):
{"columns": ["molecule", "assayedSystem", "assayReadout", "reported"],
 "data": [
  ["C#Cc1c(C(=O)O)cccc1-c1cc(Cl)ccc1OCCn1c(C)nc2cc(C(F)(F)F)cc(C#N)c2c1=O [compound 156]", "recombinant eIF4E (Homo sapiens (Human))", "IC50", "< 50 nM"],
  ["Cc1nc2c(C(F)F)ccc(C#N)c2c(=O)n1CCOc1ccc(Cl)cc1-c1ccnc2c(C(=O)O)csc12 [compound 360]", "recombinant eIF4E (Homo sapiens (Human))", "IC50", "< 50 nM"],
  ["CCc1cc(-c2cc(Cl)ccc2OCCn2c(C)nc3cc(C(F)(F)F)c(-c4ccn(C)n4)c(C#N)c3c2=O)c2scc(C(=O)O)c2n1 [compound 1014]", "recombinant eIF4E (Homo sapiens (Human))", "IC50", "< 50 nM"],
  ["COc1sc2c(-c3cc(Cl)ccc3OCCn3c(C)nc4cnc(C5CC5)c(C#N)c4c3=O)ccnc2c1C(=O)O [compound 772]", "recombinant eIF4E (Homo sapiens (Human))", "IC50", "< 50 nM"],
  ["Cc1nc2cc(C(F)(F)F)cc(C#N)c2c(=O)n1CCOc1cnc(C#N)cc1-c1ccnc2c(C(=O)O)csc12 [compound 291]", "recombinant eIF4E (Homo sapiens (Human))", "IC50", "50 to 1000 nM"],
  ["Cc1nc2c(OC(F)(F)F)ccc(C#N)c2c(=O)n1CCOc1ccc(Cl)cc1-c1ccnc2c(C(=O)O)csc12 [compound 313]", "recombinant eIF4E (Homo sapiens (Human))", "IC50", "< 50 nM"]
]}

Look up IC50 for this molecule: Cc1cc(-c2cc(Cl)ccc2OCCn2c(C)nc3c(ccc4cnncc43)c2=O)c2scc(C(=O)O)c2n1 [compound 671]
50 to 1000 nM

Look up IC50 for this molecule: C#Cc1cc2nccc(-c3cc(Cl)ccc3OCCn3c(C)nc4cc(C(F)(F)F)c(N5CCN(C)CC5)c(C#N)c4c3=O)c2s1 [compound 1244]
< 50 nM

Look up IC50 for this molecule: Cc1nc2cc(C#N)c(CN(C)C)c(C#N)c2c(=O)n1CCOc1ccc(Cl)cc1-c1ccnc2c(C(=O)O)csc12 [compound 510]
50 to 1000 nM

Look up IC50 for this molecule: Cc1nc2cc(C(F)(F)F)cc(C#N)c2c(=O)n1CCOc1ccnnc1-c1ccnc2c(C(=O)O)csc12 [compound 453]
> 1000 nM

Look up IC50 for this molecule: Cc1nc2c(C#N)cc(C(F)F)c(C#N)c2c(=O)n1CCOc1ccc(Cl)cc1-c1ccnc2c(C(=O)O)csc12 [compound 197]
50 to 1000 nM

Look up IC50 for this molecule: Cc1nc2c(N3CCN(C)CC3(C)C)ncc(C#N)c2c(=O)n1CCOc1ccc(Cl)cc1-c1ccnc2c(C(=O)O)csc12 [compound 816]
< 50 nM
